I'd appreciate it if you could supply IC50 values for the items below.
Molecular target: Amine oxidase [flavin-containing] A (Homo sapiens, UniProt P21397)
Sequence (P21397 whole entry): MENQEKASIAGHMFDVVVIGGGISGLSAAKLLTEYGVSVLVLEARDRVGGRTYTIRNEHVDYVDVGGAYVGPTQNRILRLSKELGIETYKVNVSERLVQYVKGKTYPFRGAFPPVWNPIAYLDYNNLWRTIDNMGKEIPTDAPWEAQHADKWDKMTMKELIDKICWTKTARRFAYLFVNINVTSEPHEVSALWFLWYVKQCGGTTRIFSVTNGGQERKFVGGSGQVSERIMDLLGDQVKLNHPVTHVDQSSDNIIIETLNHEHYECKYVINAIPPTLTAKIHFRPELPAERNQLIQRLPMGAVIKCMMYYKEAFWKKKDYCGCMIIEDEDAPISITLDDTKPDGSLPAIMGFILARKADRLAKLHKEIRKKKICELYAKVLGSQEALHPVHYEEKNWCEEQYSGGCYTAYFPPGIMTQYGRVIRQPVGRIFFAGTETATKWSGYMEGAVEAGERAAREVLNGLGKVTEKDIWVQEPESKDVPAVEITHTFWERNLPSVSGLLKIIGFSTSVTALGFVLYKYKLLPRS
Experiment: Inhibition of human recombinant MAO-A using p-tyramine as substrate assessed as production of H2O2 incubated for 15 mins prior to substrate addition measured after 20 mins by microplate fluorescence reader analysis
One number for each entry, in µM.

For orientation, consider the following solved cases.
> print(dat)
                                   molecule  unit.spec  recorded.value
1  Cc1ccc(C2=NN(C(=O)CBr)C(c3cc(Cl)ccc3O)C2)cc1 (stereo not given)         µM            5.22
2  O=C(CN1CCCCC1)N1N=C(c2ccc(F)cc2)CC1c1ccccc1O (stereo not given)         µM            8.02
3  O=C(CBr)N1N=C(c2ccc(F)cc2)CC1c1ccccc1O (stereo not given)         µM               6

For every item in the list below, what is its measured IC50?
1. O=C(CN1CCCCC1)N1N=C(c2ccc(Cl)cc2)CC1c1cc(Cl)ccc1O (stereo not given)
2. CC1=NN(C(=O)CN2CCC(CO)CC2)C(c2cc(Br)cc(Br)c2O)C1 (stereo not given)
3. COc1ccc(C2=NN(C(=O)CN3CCCCC3)C(c3ccccc3O)C2)cc1 (stereo not given)

Result:
[6.01, 25.7, 12.7]

// each listed molecule needs a value for IC50
1. O=C(CN1CCCCC1)N1N=C(c2ccc(Cl)cc2)CC1c1ccccc1O (stereo not given)
2. CC1=NN(C(=O)CN2CCC(O)CC2)C(c2cc(Br)cc(Br)c2O)C1 (stereo not given)
3. COc1ccc(C2=NN(C(=O)CN3CCCCC3)C(c3cc(Cl)ccc3O)C2)cc1 (stereo not given)
4. O=C(CN1CCCCC1)N1N=C(c2ccc(F)cc2)CC1c1cc(Cl)ccc1O (stereo not given)

Result:
7.25
12.4
9.65
3.72

---

Target: Amine oxidase [flavin-containing] B (Homo sapiens)
Sequence (P27338 whole entry): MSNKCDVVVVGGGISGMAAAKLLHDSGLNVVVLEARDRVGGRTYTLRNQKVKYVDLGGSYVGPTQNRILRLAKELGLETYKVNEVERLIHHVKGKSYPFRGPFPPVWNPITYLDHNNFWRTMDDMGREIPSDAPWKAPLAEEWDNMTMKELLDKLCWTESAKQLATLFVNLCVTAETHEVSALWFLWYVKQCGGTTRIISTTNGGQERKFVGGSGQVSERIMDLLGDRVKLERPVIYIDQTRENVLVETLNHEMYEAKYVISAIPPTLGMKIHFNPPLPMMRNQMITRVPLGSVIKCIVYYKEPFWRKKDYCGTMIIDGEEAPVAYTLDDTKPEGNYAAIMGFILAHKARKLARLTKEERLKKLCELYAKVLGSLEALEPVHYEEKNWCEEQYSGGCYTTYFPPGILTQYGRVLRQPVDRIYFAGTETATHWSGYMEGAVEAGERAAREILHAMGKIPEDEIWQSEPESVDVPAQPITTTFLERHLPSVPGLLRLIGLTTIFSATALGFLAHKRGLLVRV
Assay: Inhibition of human recombinant MAO-B using p-tyramine as substrate assessed as production of H2O2 incubated for 15 mins prior to substrate addition measured after 20 mins by microplate fluorescence reader analysis
For each record, write down the corresponding IC50.

Sample records with IC50:
> print(dat)
                                   compound  measured.metric  recorded.value
1  O=C(CN1CCOCC1)N1N=C(c2ccc(Cl)cc2)CC1c1cc(Cl)ccc1O (stereo not drawn)             IC50         55.1 µM
2  O=C(CN1CCOCC1)N1N=C(c2ccc(F)cc2)CC1c1cc(Cl)ccc1O (stereo not drawn)             IC50         30.2 µM
3  CC1=NN(C(=O)CN2CCC(CO)CC2)C(c2cc(Br)cc(Br)c2O)C1 (stereo not drawn)             IC50         30.1 µM
4  O=C(CN1CCNCC1)N1N=C(c2ccc(F)cc2)CC1c1cc(Cl)ccc1O (stereo not drawn)             IC50         58.9 µM
5  CC1=NN(C(=O)CN2CCCCC2)C(c2cc(Cl)ccc2O)C1 (stereo not drawn)             IC50         55.9 µM

Provide IC50 for all items below, preserving their order.
1. O=C(CN1CCOCC1)N1N=C(c2ccc(Cl)cc2)CC1c1ccccc1O (stereo not drawn)
2. Cc1ccc(C2=NN(C(=O)CN3CCCCC3)C(c3ccccc3O)C2)cc1 (stereo not drawn)
3. COc1ccc(C2=NN(C(=O)CN3CCCCC3)C(c3ccccc3O)C2)cc1 (stereo not drawn)

Result:
1: 31.5 µM; 2: 45.6 µM; 3: 59.4 µM
